Target: preformed human β-2 microglobulin fibrils (Homo sapiens)
Sequence (P61769 21-119): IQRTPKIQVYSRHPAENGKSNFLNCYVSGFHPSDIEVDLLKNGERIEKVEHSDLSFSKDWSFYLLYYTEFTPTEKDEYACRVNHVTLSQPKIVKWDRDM
Assay: Thioflavin T fluorescence high-throughput screen (slope assay score) for disruption of preformed fibrils
Type: biochemical
property: effective in the fluorescence assay at disrupting β-2 microglobulin fibers

molecule	experimental.result
Cc1cc(N)c2ccccc2[n+]1CCCCCCCCCC[n+]1c(C)cc(N)c2ccccc21 [dequalinium dichloride]	effective
C=C1c2c(Cl)ccc(O)c2C(O)=C2C(=O)[C@]3(O)C(=O)/C(=C(\N)O)C(=O)[C@@H](N(C)C)[C@@H]3[C@@H](O)[C@H]12 [Meclocycline sulfosalicylate]	effective

----------
Target: preformed human β-2 microglobulin fibrils (Homo sapiens)
Experiment: Electron microscopy as a secondary screen of fibril disruption
Assay type: biochemical
Conditions: at the concentrations tested
Counter-ions that a name gives are not always drawn.

compound	effect on fibrils by electron microscopy
Cc1cc(O)c(C=O)c(O)c1C(=O)O [Haematommic Acid]	visibly disrupted
NC(CO)C(=O)NNCc1ccc(O)c(O)c1O (stereo not drawn) [Compound L18, benserazide hydrochloride]	had an effect on fibrils
COc1cc(C)c2c(c1C=O)Oc1c(c(C)c(O)c3c1C(O)OC3=O)OC2=O (stereo not drawn) [Stictic Acid]	visibly disrupted
C=C1c2c(Cl)ccc(O)c2C(O)=C2C(=O)[C@]3(O)C(=O)/C(=C(\N)O)C(=O)[C@@H](N(C)C)[C@@H]3[C@@H](O)[C@H]12 [Meclocycline sulfosalicylate]	visibly disrupted
O=C(O[C@@H]1Cc2c(O)cc(O)cc2O[C@@H]1c1cc(O)c(O)c(O)c1)c1cc(O)c(O)c(O)c1 [Compound 22, Epigallocatechin gallate]	had an effect on fibrils

Every entry's value here was drawn from patent US9463195B2.
